compounds and their reported log10 Ki
- assay.target: human D2 receptor (Homo sapiens (Human), UniProt P14416)
- Sequence (P14416 whole entry): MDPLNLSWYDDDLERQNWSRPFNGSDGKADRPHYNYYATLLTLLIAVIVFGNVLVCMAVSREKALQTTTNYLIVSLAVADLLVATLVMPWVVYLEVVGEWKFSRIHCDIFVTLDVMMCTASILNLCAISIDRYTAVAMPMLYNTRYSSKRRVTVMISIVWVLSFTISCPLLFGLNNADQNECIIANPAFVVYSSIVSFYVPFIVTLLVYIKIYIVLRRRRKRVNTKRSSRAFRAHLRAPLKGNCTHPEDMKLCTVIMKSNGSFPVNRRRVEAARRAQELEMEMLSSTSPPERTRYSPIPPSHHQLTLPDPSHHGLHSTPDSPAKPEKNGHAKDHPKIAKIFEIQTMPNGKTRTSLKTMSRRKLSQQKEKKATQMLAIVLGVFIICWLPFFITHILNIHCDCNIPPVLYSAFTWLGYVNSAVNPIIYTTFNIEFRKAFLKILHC
- assay.notes: Test 1: binding activity for human D2 receptor ([3H]Spiperone, CHO cell membrane fraction)
- reported.conditions: human D2 receptor, [3H]Spiperone
quantity.name: log10 Ki (log10 of the value in nM)

> print(dat)
                                   compound  numeric.value
1  Cc1c2c(nn1C)CCN(CCN1CCN(c3nsc4ccccc34)CC1)C2=O           2.35
2  O=C1c2cn(C3CC3)nc2CCN1CCN1CCN(c2nsc3ccccc23)CC1           2.32
3  Cc1nc2c(o1)C(=O)N(CCN1CCC(c3noc4ccccc34)CC1)CCC2           2.86
4  Cc1cc2c(n1C)CCCN(CCN1CCN(c3nsc4ccccc34)CC1)C2=O           1.85
5  Cc1ncc2c(n1)CCC(CCN1CCC(c3noc4ccccc34)CC1)C2=O (stereo not drawn)           2.27
6  O=C1c2nc(F)ccc2CCN1CCN1CCC(c2noc3ccccc23)CC1           2.85
7  Cn1cnc2c1C(=O)N(CCN1CCN(c3nsc4ccccc34)CC1)CCC2           2.84
8  O=c1c2cnc(C(F)(F)F)cc2ccn1CCN1CCN(c2nsc3ccccc23)CC1           2.58
9  Cc1cc2c(n1C)CCCN(CCN1CCC(c3noc4ccccc34)CC1)C2=O           2.14
